Taken from a melting point compilation (Tetko et al.; mined from patent text by program, amines drawn as free bases though some values may be those of a salt).

Some molecules, each annotated with its measured melting point.

> print(dat)
                                   molecule       measured
1  O=C(Nc1ccncc1)c1n[nH]c2ccc(-c3cncc4[nH]ccc34)cc12       > 250 °C
2  N#CC(C#N)=C1N(CCCN2CCCCC2)CCN1C1CCN(Cc2ccccc2)CC1  156 to 158 °C
3  N#CCCc1cccc(-c2ccc3cnc(Nc4ccc5c(c4)CCC(N4CCOCC4)CC5)nn23)c1 (stereo not given)  184 to 186 °C
4  O=C(NCCO)c1cccc(-c2ccc(F)c3cc(Cc4cccc(C(F)(F)F)c4)oc23)c1  159 to 160 °C
5  O=C1CCC(O)(c2ccc(Cl)c(Cl)c2)CN1Cc1ccccc1 (stereo not given)         128 °C

Lab note: measured melting point of CCCCCCCCCCCCC#CC(F)(CCCCC(=O)O)CCCCC(=O)O was 98 to 100 °C

Lab note: measured melting point of Nc1c2c(nc3ccccc13)CCCC2OCCBr (stereo not given) was 164 °C

Lab note: measured melting point of CCNc1ccc(CN2OCC(C)(C)C2=O)c(Cl)c1 was 135 to 138 °C

Lab note: measured melting point of C#CCNC(=O)N1CC(Oc2ccc(C(F)(F)F)cc2)C1 was 135 to 137 °C

Lab note: measured melting point of O=C(CCl)NC1(c2ccccc2Cl)C(=O)Nc2ccc(Cl)cc21 (stereo not given) was 230 °C
